- Tested on: HS 578T breast
- Test Summary: NCI tumour cell line growth inhibition, 48 h
Observation Type: TGI

I am curious: what TGI value has been reported for Cc1ccc(/C=N/Nc2cnccn2)s1 ?
> 100 µM

I am curious: what TGI value has been reported for CC1(CCC2C=CCC2)CCCNC1=S (stereo not drawn) ?
> 10 µM

Need TGI, item COC(=O)[C@@H]1CN(C(=O)CCc2ccccc2)C(=O)N1C(=O)OCc1ccccc1
> 100 µM

Need TGI of CC(C)CC(CC1=CCC2CC1C2(C)C)C1=C(O)C(C)(C)C(=O)C(C)(C)C1=O (stereo not drawn) , thanks.
3.81 µM

// query TGI value for entry CCOC(=O)c1c(N2CCCC2)nsc1Nc1ccccc1
> 100 µM

Tell me the measured TGI of COc1ccc(N2C(=O)C3c4[nH]c5c(C)cccc5c4C4CCC(C(C)(C)C)CC4C3C2=O)cc1 (stereo not drawn) , please.
> 10 µM

Suppose we examine the compound C1=NCCNCCN=Cc2ccc(cc2)OCc2cccc(n2)COc2ccc1cc2 ; what TGI value has been reported?
> 100 µM

Entry under review: CC1=C(N2CC2)C(=O)c2nc3n(c2C1=O)CCC3OC(=O)CCl (stereo not drawn) . Reported TGI?
0.0784 µM

Reported TGI, compound COc1ccc(-c2n[nH]nc2-c2cc(OC)c3c(c2OC)OCO3)cc1 : ____
15 µM

Quick one: TGI of CS(=O)(=O)c1ccc(C(=O)Nc2ccc(Cl)c(-c3ccccn3)c2)c(Cl)c1 ?
> 100 µM

Field request: TGI | item: O=C(CN1CCNCCN(CC(=O)N2CCCCC2)CCNCC1)N1CCCCC1
> 100 µM

Fill in the blank: the reported TGI of CC(CN1CCN(CCOCCO)CC1)CN1c2ccccc2Sc2ccc(Cl)cc21 (stereo not drawn) is ____.
20.1 µM

Would you kindly share the measured TGI for NC(N)=N/N=C/c1c(-c2ccccc2)nc2n1ccc1nc(-c3ccccc3)c(/C=N/N=C(N)N)n12 ?
> 100 µM

For the compound C[C@]12CCC3[C@@H](CC[C@@H]4c5nonc5CC[C@]34C)C1CCC(=O)N2 (stereo partly drawn) , what TGI is on record?
> 100 µM

// lookup TGI for COc1cc2c(c(OC)c1OC)C(=O)[C@H](O)[C@H]2NC(N)=O
> 100 µM

Consider the compound shown here: CN(C)c1ccc(/C=C\c2cccc[n+]2C)cc1 What is its recorded TGI?
> 100 µM

Quick one: TGI of Cc1ccc(C2=NOC3=c4ccccc4=CSC3=C2c2ccc([N+](=O)[O-])cc2)cc1 ?
94.9 µM

I would be grateful if you could share the reported TGI for COC(=O)C1C(OC(=O)c2ccccc2)CC2CCC1N2C(N)=O (stereo not drawn) .
> 100 µM

These entries and their values trace back to PubChem BioAssay (NCI).
